Source: PubChem BioAssay (NCI)

- Tested on: NCI-H522 lung
- test-method-notes: NCI tumour cell line growth inhibition, 48 h; in the data active = GI50 below about 0.43 µM; inactive = the rest
API: response.call in active, inactive

Please let me know the test result on file for COc1ccc(/C=C/C(=O)c2ccc(O)c(CN3CCN(c4cc5c(cc4F)c(=O)c(C(=O)O)cn5C4CC4)CC3)c2)cc1 . inactive

---
In this assay, the call recorded for C=C1/C(=C\C=C2/CCC[C@]3(C)[C@@H]([C@H](C)CCCC(C)(C)O)CC[C@@H]23)C[C@@H](OC(=O)CBr)C[C@@H]1O was what? active

I would be grateful if you could indicate the recorded call for CCOC(=O)c1c2c(n(Cc3ccc(Cl)cc3Cl)c1C)-c1nc[nH]c1C(=O)C2=O . inactive

Please share the test call associated with COc1ccc(-c2nc(-c3ccccc3)c(-c3ccccc3)[nH]2)cc1OC1CCCC1 . inactive

Which outcome did this test record for the molecule CN[C@H](C#Cc1c(F)ccc2c1/C(=C/c1[nH]ccc1OC)C(=O)N2)CO ? inactive

Which outcome was assigned to Nc1nc(N)c2nc(CNc3ccc(C(=O)NC(CC(=O)O)C(=O)O)cc3)cnc2n1 (stereo unspecified) in this test? inactive
